- target_desc: T1, Human PSMA antigen (human, UniProt Q04609 44-750, limits assumed)
- T1 construct: This is the antigen immobilised on the Biacore chip; also called FOLH1_HUMAN
- method_summary: SPR (Biacore), 37 C, antibody over immobilized PSMA
measure_name: fold-change KD relative to chimeric (fold)
Expressed in fold, but write only the number.

Worked cases, answers included:
>  <binder>
huJ591 (J591_VH-1 + J591_VL-2) (antibody, human IgG1, V domains shown, One of the 9 huJ591 versions; Human IgG1 frameworks) VH: QVQLVQSGAEVKKPGASVKVSCKASGYTFTEYTMHWVRQAPGQGLEWMGNINPNNGGTTYAQKFQGRVTMTRDKSISTAYMELSRLRSDDTAVYYCAAGWNFDYWGQGTLVTVSS VL: DIQLTQSPSFLSASVGDRVTITCRASQDVGTALDWYQQKPGKAPKLLIYWASTRHSGVPSRFSGSGSGTEFTLTISSLQPEDFATYYCQQYNSYPLTFGQGTKLEIK

>  <units>
fold

>  <readout_value>
23.6

$$$$
>  <binder>
huJ591 clone having combination of J591_VL-1 and J591_VH-3 (antibody, V domains shown, also called the select clone) VH: QVQLVQSGAEVKKPGASVKVSCKASGYTFTEYTMHWVRQAPGQRLEWMGNINPNNGGTTYSQKFQGRVTITVDKSASTAYMELSSLRSEDTAVYYCAAGWNFDYWGQGTLVTVSS VL: DIQLTQSPSFLSASVGDRVTITCRASQDVGTALDWYQQKPGKAPKLLIYWASTLHSGVPSRFSGSGSGTEFTLTISSLQPEDFATYYCQQYNSYPLTFGQGTKLEIKR

>  <units>
fold

>  <readout_value>
8.1

$$$$
>  <binder>
huJ591 (J591_VH-2 + J591_VL-3) (antibody, human IgG1, V domains shown, One of the 9 huJ591 versions; Human IgG1 frameworks) VH: QVQLVQSGAEVKKPGASVKVSCKASGYTFTEYTMHWVRQAPGQGLEWMGNINPNNGGTTYNQKFQGRVTMTVDKSISTAYMELSRLRSDDTAVYYCAAGWNFDYWGQGTLVTVSS VL: DIVMTQSPSSLSASVGDRVTITCRASQDVGTALDWYQQKPGKAPELLIYWASSLHSGVPSRFRGSGSGTDFTLTISSVQPEDFATYYCQQYNSYPLTFGQGTKLEIK

>  <units>
fold

>  <readout_value>
16.9

$$$$
>  <binder>
huJ591 (J591_VH-1 + J591_VL-3) (antibody, human IgG1, V domains shown, One of the 9 huJ591 versions; Human IgG1 frameworks) VH: QVQLVQSGAEVKKPGASVKVSCKASGYTFTEYTMHWVRQAPGQGLEWMGNINPNNGGTTYAQKFQGRVTMTRDKSISTAYMELSRLRSDDTAVYYCAAGWNFDYWGQGTLVTVSS VL: DIVMTQSPSSLSASVGDRVTITCRASQDVGTALDWYQQKPGKAPELLIYWASSLHSGVPSRFRGSGSGTDFTLTISSVQPEDFATYYCQQYNSYPLTFGQGTKLEIK

>  <units>
fold

>  <readout_value>
17.2

$$$$

Next binder, please.
Req: Returns the measured fold-change KD relative to chimeric for the input binder. Input: huJ591 (J591_VH-2 + J591_VL-1) (antibody, human IgG1, V domains shown, One of the 9 huJ591 versions; Human IgG1 frameworks) VH: QVQLVQSGAEVKKPGASVKVSCKASGYTFTEYTMHWVRQAPGQGLEWMGNINPNNGGTTYNQKFQGRVTMTVDKSISTAYMELSRLRSDDTAVYYCAAGWNFDYWGQGTLVTVSS VL: DIQLTQSPSFLSASVGDRVTITCRASQDVGTALDWYQQKPGKAPKLLIYWASTLHSGVPSRFSGSGSGTEFTLTISSLQPEDFATYYCQQYNSYPLTFGQGTKLEIK
Resp: 17.2
